Hello, the source for this data is patent US12077503B2, in case you need it.

Test system: corn (Zea mays)
Assay: Test C preemergence
Assay type: in vivo
Conditions: 62 g ai/ha, scale 0 to 100, 0 no effect, 100 complete control
assayMetric: Plant response rating, Corn
Enter a number only.

Known Plant response rating, Corn results, listed for orientation:
Qu. Report its Plant response rating, Corn with corn (Zea mays) as the test system: CN1CC(c2ccc(F)c(C(F)(F)F)c2)C(C(=O)Nc2cccc(F)c2F)C1=O (centres unmarked)
Ans. 55

Qu. Give reported Plant response rating, Corn for CN1CC(c2cccc(C(F)(F)F)c2)C(C(=O)Nc2cccc(F)c2F)C1=O (centres unmarked) (corn (Zea mays))
Ans. 80

Qu. Look up corn (Zea mays) data: Plant response rating, Corn of O=C1NCC(c2cc(F)cc(Cl)c2)C1C(=O)Nc1cccc(F)c1F (centres unmarked) , then report it.
Ans. 10

Qu. Using corn (Zea mays) as the test system, report measured Plant response rating, Corn of CN1C[C@H](c2ccc(C(F)(F)F)cc2)[C@@H](C(=O)Nc2ccccc2F)C1=O .
Ans. 45

Qu. Report value: Plant response rating, Corn, system: corn (Zea mays), compound: O=C1NCC(c2cccc(OC(F)(F)C(F)F)c2)C1C(=O)Nc1ccccc1F (racemic)
Ans. 25

Qu. Give Plant response rating, Corn; test system corn (Zea mays); compound CN1CC(c2cccc(C(F)(F)F)c2)C(C(=O)Nc2ccccc2S(C)(=O)=O)C1=O (centres unmarked)
Ans. 55

***
Qu. Specify the recorded Plant response rating, Corn for CN1CC(c2ccc(C(F)(F)F)cc2)C(C(=O)Nc2ccccc2S(C)(=O)=O)C1=O (centres unmarked) , system: corn (Zea mays).
Ans. 0

Qu. Give Plant response rating, Corn for CN1CC(c2cccc(OC(F)(F)C(F)F)c2)C(C(=O)Nc2ccc(F)cc2F)C1=O (centres unmarked) tested on corn (Zea mays).
Ans. 40
